// values below are reported pIC50
Target: Pim2 kinase (Homo sapiens, UniProt Q9P1W9)
Sequence (Q9P1W9 whole entry): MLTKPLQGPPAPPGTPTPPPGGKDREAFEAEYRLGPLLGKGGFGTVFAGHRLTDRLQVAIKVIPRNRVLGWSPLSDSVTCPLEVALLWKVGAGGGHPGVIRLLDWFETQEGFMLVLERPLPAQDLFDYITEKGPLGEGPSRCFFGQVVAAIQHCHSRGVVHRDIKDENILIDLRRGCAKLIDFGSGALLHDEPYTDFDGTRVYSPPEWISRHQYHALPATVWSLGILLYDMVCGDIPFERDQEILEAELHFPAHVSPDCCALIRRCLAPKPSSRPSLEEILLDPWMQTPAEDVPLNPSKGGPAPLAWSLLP
Assay: Pim2 AlphaScreen assay (high ATP)
pIC50: −log10 of the molar value.
RECORDED_ENDPOINT: pIC50

>>> value_reported("C[C@H]1C[C@@H](c2ccncc2NC(=O)c2ccc(F)c(-c3c(F)cc(COC4CCOCC4)cc3F)n2)C[C@@H](N)[C@]1(C)O")
8.41
>>> value_reported("C[C@H]1C[C@@H](c2ccncc2NC(=O)c2nc(-c3ccc(F)c(F)c3)ccc2N)C[C@@H](O)[C@]1(C)O")
5.09
>>> value_reported("C[C@H]1C[C@@H](c2ccncc2NC(=O)c2nc(-c3cccc(F)n3)ccc2N)C[C@@H](O)[C@]1(C)O")
5.25
>>> value_reported("C[C@H]1C[C@@H](c2ccncc2NC(=O)c2ccc(F)c(-c3c(F)cc(CCO)cc3F)n2)C[C@@H](N)[C@]1(C)O")
8.49
>>> value_reported("CC(C)c1cc(F)c(-c2nc(C(=O)Nc3cnccc3[C@H]3C[C@@H](N)[C@](C)(O)[C@@H](C)C3)ccc2F)c(F)c1")
8.86
>>> value_reported("C[C@H]1C[C@@H](c2ccncc2NC(=O)c2ccc(F)c(-c3c(F)cc(C4CCS(=O)(=O)CC4)cc3F)n2)C[C@@H](O)C1(C)O (stereo in doubt)")
7.31

====

Molecular target: Pim2 kinase (Homo sapiens, UniProt Q9P1W9)
Experiment: Pim2 AlphaScreen assay (high ATP)
// values below are reported IC50
RECORDED_ENDPOINT: IC50 (nM)

>>> value_reported("CCc1cc(F)c(-c2nc(C(=O)Nc3cnccc3[C@H]3C[C@@H](N)[C@](C)(O)[C@@H](C)C3)ccc2F)c(F)c1")
2.68
>>> value_reported("C[C@H]1C[C@@H](c2ccncc2NC(=O)c2ccc(F)c(-c3ccc(F)c(F)c3)n2)C[C@@H](O)[C@]1(C)O")
22100
>>> value_reported("CCOCc1cc(F)c(-c2nc(C(=O)Nc3cnccc3[C@H]3C[C@@H](N)[C@](C)(O)[C@@H](C)C3)ccc2F)c(F)c1")
4
>>> value_reported("C[C@H]1C[C@@H](c2ccncc2NC(=O)c2ccc(F)c(-c3c(F)cc(N4CCOCC4)cc3F)n2)C[C@@H](N)[C@]1(C)O")
1.91
>>> value_reported("C[C@H]1C[C@@H](c2ccncc2NC(=O)c2ccc(F)c(-c3c(F)cc(C4(F)CCOCC4)cc3F)n2)C[C@@H](N)[C@]1(C)O")
2.21

====

Target: Pim3 kinase (Homo sapiens, UniProt Q86V86)
Test: Pim3 AlphaScreen assay (high ATP)
RECORDED_ENDPOINT: log10 of IC50 (log10 of the value in nM)

>>> value_reported("Cc1cc(F)c(-c2nc(C(=O)Nc3cnccc3[C@H]3C[C@@H](C)[C@](C)(O)[C@@H](N)C3)ccc2F)c(F)c1")
2.36
>>> value_reported("C[C@H]1C[C@@H](c2ccncc2NC(=O)c2nc(-c3c(F)cccc3F)ccc2N)C[C@@H](O)[C@@]1(O)CF")
1.01
>>> value_reported("CC(C)Oc1cc(F)c(-c2nc(C(=O)Nc3cnccc3[C@H]3C[C@@H](O)[C@](C)(O)[C@@H](C)C3)c(N)cc2F)c(F)c1")
1.66
>>> value_reported("C[C@H]1C[C@@H](c2ccncc2NC(=O)c2nc(-c3nc(F)c(F)cc3F)ccc2N)C[C@@H](O)[C@]1(C)O")
3.03
>>> value_reported("COc1cc(F)c(-c2nc(C(=O)Nc3cnccc3[C@H]3C[C@@H](C)[C@](C)(O)[C@@H](N)C3)ccc2F)c(F)c1")
1.86
>>> value_reported("CCc1cc(F)c(-c2nc(C(=O)Nc3cnccc3[C@H]3C[C@@H](N)[C@](C)(O)[C@@H](C)C3)ccc2F)c(F)c1")
0.12
>>> value_reported("C[C@H]1C[C@@H](c2ccncc2NC(=O)c2ccc(F)c(-c3c(F)cc(C4(O)CCC4)cc3F)n2)C[C@@H](N)[C@]1(C)O")
0.37
>>> value_reported("COCCOc1cc(F)c(-c2nc(C(=O)Nc3cnccc3[C@H]3C[C@@H](N)[C@](C)(O)[C@@H](C)C3)ccc2F)c(F)c1")
0.32
>>> value_reported("C[C@H]1C[C@@H](c2ccncc2NC(=O)c2ccc(F)c(-c3c(F)cc(S(C)(=O)=O)cc3F)n2)C[C@@H](O)[C@]1(C)O")
3.21
>>> value_reported("C[C@H]1C[C@@H](c2ccncc2NC(=O)c2ccc(F)c(-c3c(F)cc(OCC(=O)N(C)C)cc3F)n2)C[C@@H](N)[C@]1(C)O")
0.09
>>> value_reported("CCOc1cccc(-c2ccc(N)c(C(=O)Nc3cnccc3[C@H]3C[C@@H](O)[C@](C)(O)[C@@H](C)C3)n2)n1")
2.79
>>> value_reported("C[C@@H]1C[C@H](c2ccncc2NC(=O)c2ccc(F)c(-c3c(F)cc(C(C)(C)O)cc3F)n2)C[C@H](O)[C@@]1(C)O")
3.46
>>> value_reported("C[C@@H]1C[C@H](c2ccncc2NC(=O)c2ccc(F)c(-c3c(F)cc(CN4CCCC4=O)cc3F)n2)C[C@H](O)[C@@]1(C)O")
2.99
